We begin with a simple list: items and their reported bioavailability.
# test: Pharmacokinetic experiment in mice (intravenous 5 mg/kg or intragastric 30 mg/kg)
# Format: in vivo
# cond: male, ICR, mouse, plasma, po, 30 mg/kg, PO 30 mg/kg vs IV 5 mg/kg
measured-property: bioavailability (%)

- compound: "[2H]C([2H])(NC(=O)c1cc(Cl)c2c(c1C)OC(C)(C1CCC(N[C@H]3C[C@H](F)C3)CC1)O2)c1c(SC)cc(C)[nH]c1=O (single isomer, unassigned) [Compound 53, isomer 1]"
  measured-property: "bioavailability"
  numeric-result: 47.9
- compound: "Cc1cc(C)c(CNC(=O)c2cc(Cl)c3c(c2C)O[C@@](C)([C@H]2CC[C@H](N(C)C)CC2)O3)c(=O)[nH]1 [Compound I-2, Valemetostat, reference compound]"
  measured-property: "bioavailability"
  numeric-result: 9.08
- compound: "[2H]C([2H])(NC(=O)c1cc(Cl)c2c(c1C)OC(C)([C@H]1CC[C@@H](NC3CC(F)(F)C3)CC1)O2)c1c(SC)cc(C)[nH]c1=O (single isomer, unassigned) [Compound 44, isomer 1]"
  measured-property: "bioavailability"
  numeric-result: 44.3
- compound: "[2H]C([2H])(NC(=O)c1cc(Cl)c2c(c1C)OC(C)(C1CCN(CC3CC3)CC1)O2)c1c(SC)cc(C)[nH]c1=O (stereo not shown)"
  measured-property: "bioavailability"
  numeric-result: 52.7

====

# test: Pharmacokinetic experiment in monkeys
# Assay type: in vivo
# cond: male, cynomolgus monkey, plasma, PO 15 mg/kg
measured-property: Cmax (ng/mL)

- compound: "[2H]C([2H])(NC(=O)c1cc(Cl)c2c(c1C)OC(C)(C1CCC(NC3COC3)CC1)O2)c1c(SC)cc(C)[nH]c1=O (single isomer, unassigned) [Compound 59, isomer 2]"
  measured-property: "Cmax"
  unit-string: "ng/mL"
  numeric-result: 2320

====

Parameter 'readout' = IC50; parameter 'system' = CYP2C9 (Homo sapiens (Human), UniProt P11712).
Sequence (P11712 whole entry): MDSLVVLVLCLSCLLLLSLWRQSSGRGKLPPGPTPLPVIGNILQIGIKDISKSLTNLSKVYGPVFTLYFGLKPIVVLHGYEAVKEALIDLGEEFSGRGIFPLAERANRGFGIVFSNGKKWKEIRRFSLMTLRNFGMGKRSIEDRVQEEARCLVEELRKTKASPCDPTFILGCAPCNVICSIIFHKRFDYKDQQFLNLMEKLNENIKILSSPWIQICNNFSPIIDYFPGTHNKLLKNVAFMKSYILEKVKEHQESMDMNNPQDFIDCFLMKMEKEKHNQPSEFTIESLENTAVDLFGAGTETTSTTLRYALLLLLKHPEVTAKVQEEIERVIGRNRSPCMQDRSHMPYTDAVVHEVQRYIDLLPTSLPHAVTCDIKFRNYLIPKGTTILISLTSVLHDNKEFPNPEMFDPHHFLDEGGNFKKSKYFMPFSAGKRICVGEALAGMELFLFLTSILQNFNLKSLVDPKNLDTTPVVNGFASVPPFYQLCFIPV
measured-property: IC50

- compound: "Cc1cc(C)c(CNC(=O)c2cc(Cl)c3c(c2C)O[C@@](C)([C@H]2CC[C@H](N(C)C)CC2)O3)c(=O)[nH]1 [Compound I-2, Valemetostat, reference compound]"
  measured-property: "IC50"
  result: "> 50 µM"
- compound: "[2H]C([2H])(NC(=O)c1cc(Cl)c2c(c1C)OC(C)(C1CCC(NC3COC3)CC1)O2)c1c(SC)cc(C)[nH]c1=O (single isomer, unassigned) [Compound 59, isomer 2]"
  measured-property: "IC50"
  result: "> 50 µM"

====

# test: Pharmacokinetic experiment in monkeys
# Type: in vivo
# cond: male, cynomolgus monkey, plasma, PO 15 mg/kg
measured-property: Tmax (h)

- molecule: "[2H]C([2H])(NC(=O)c1cc(Cl)c2c(c1C)OC(C)(C1CCC(NC3COC3)CC1)O2)c1c(SC)cc(C)[nH]c1=O (single isomer, unassigned) [Compound 59, isomer 2]"
  measured-property: "Tmax"
  unit-string: "h"
  numeric-result: 1

====

# test: Pharmacokinetic experiment in mice (single intragastric dose, 20 mg/kg)
# cond: male, ICR, mouse, plasma, po
measured-property: AUC (ng·h/mL)

- molecule: "CSc1cc(C)[nH]c(=O)c1CNC(=O)c1cc(Cl)c2c(c1C)OC(C)([C@H]1CC[C@@H](N[C@H]3C[C@H](F)C3)CC1)O2 (single isomer, unassigned) [Compound 34, isomer 1]"
  measured-property: "AUC"
  numeric-result: 1350

====

# test: Pharmacokinetic experiment in monkeys
# Assay type: in vivo
# cond: male, cynomolgus monkey, plasma, PO 15 mg/kg vs IV 3 mg/kg
# Protocol: Experimental animal: twelve cynomolgus monkeys, 2.4-5.9 kg, male, 3-5.5 years old, purchased from Suzhou Xishan Zhongke Laboratory Animal Co., Ltd, with the production license number of SCXK(SU) 2018-0001. Before and after the administration, 1.0 mL of blood was taken from the front and rear limb veins of the animals, and placed in an EDTAK2 centrifuge tube. […] Before analysis and detection, all plasma samples were stored at −80° C.

- molecule: "[2H]C([2H])(NC(=O)c1cc(Cl)c2c(c1C)OC(C)(C1CCC(NC3COC3)CC1)O2)c1c(SC)cc(C)[nH]c1=O (single isomer, unassigned) [Compound 59, isomer 2]"
  bioavailability / %: 42.1

====

pIC50: −log10 of the molar value. Where a name gives a salt, the structure may show the parent alone.
Parameter 'readout' = pIC50; parameter 'system' = EZH2 (Homo sapiens (Human), UniProt Q15910).
Sequence (Q15910 other isoform, or with tags, fused parts or gaps isoform Q15910-2): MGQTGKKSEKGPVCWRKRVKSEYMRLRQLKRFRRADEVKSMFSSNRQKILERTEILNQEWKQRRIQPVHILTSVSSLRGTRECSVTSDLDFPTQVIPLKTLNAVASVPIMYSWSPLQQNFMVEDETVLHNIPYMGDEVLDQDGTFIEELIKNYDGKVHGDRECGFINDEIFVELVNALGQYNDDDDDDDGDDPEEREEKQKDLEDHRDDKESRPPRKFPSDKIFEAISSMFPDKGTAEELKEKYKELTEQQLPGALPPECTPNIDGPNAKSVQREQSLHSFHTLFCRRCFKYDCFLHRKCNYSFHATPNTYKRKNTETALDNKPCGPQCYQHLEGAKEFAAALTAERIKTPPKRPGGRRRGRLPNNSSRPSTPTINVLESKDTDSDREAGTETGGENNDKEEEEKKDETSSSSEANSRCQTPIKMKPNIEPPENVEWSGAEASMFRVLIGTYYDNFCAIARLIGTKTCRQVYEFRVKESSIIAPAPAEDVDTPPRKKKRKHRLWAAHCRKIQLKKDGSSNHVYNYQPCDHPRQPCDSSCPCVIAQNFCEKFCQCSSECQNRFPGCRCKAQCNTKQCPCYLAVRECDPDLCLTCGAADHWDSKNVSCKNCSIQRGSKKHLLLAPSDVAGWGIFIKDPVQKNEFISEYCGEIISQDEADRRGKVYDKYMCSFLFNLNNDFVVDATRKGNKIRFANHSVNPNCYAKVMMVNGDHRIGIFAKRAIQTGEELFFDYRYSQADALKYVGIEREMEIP
Sequence (O75530 2-441 partner): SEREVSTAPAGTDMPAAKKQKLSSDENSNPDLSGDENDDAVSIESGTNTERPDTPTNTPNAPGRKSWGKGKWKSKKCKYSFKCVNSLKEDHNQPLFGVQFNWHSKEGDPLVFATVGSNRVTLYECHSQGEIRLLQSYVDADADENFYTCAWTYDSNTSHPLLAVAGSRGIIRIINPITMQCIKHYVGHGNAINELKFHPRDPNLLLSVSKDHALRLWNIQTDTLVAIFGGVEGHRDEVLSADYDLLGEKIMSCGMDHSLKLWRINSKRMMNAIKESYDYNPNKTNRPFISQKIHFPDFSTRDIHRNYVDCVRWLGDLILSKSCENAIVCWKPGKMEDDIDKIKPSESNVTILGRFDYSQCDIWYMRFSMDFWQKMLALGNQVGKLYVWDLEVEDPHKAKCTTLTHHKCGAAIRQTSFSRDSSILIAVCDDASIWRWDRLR
Sequence (Q15022 2-739 partner): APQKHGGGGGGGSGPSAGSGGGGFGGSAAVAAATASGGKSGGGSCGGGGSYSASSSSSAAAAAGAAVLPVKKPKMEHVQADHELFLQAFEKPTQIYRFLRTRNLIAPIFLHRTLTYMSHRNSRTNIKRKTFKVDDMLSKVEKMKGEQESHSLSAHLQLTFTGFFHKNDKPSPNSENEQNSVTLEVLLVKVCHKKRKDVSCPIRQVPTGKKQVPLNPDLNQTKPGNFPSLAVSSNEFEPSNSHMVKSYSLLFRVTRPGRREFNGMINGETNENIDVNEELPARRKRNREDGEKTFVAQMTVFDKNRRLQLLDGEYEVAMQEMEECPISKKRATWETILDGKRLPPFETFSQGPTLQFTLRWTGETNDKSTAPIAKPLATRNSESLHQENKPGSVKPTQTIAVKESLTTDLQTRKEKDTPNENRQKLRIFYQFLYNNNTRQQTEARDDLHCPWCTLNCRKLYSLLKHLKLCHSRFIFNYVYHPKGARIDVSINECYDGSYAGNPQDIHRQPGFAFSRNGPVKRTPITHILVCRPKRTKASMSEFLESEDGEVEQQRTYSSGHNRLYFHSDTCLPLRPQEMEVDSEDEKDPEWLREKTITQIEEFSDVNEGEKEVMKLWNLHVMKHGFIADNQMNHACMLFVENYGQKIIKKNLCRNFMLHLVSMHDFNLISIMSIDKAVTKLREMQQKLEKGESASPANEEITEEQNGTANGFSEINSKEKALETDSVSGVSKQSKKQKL
Sequence (Q09028 2-425 partner): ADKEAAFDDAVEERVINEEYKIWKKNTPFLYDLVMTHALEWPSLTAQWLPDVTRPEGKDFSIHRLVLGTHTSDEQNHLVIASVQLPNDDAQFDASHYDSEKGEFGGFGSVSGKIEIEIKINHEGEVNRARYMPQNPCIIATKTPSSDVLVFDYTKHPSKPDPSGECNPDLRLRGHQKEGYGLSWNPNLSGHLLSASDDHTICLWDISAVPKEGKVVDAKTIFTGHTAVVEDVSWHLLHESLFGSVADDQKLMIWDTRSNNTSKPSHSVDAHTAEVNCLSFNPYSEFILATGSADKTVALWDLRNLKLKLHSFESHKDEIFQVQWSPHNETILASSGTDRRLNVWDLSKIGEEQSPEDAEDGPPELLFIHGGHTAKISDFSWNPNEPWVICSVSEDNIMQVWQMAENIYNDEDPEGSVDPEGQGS
Sequence (Q6ZN18 whole entry partner): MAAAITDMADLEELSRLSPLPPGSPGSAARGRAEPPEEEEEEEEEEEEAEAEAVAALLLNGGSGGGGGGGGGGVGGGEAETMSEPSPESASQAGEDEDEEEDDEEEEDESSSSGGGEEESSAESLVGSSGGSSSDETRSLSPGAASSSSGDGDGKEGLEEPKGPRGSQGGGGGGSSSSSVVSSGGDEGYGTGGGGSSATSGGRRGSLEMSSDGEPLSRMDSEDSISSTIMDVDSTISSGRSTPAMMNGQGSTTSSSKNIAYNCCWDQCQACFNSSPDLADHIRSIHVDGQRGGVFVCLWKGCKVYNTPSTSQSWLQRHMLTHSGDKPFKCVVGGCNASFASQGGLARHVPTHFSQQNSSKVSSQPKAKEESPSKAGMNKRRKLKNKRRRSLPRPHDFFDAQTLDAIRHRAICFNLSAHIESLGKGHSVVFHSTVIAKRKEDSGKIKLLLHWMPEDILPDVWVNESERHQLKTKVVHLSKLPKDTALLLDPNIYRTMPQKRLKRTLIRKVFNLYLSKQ
measured-property: pIC50

- molecule: "[2H]C([2H])(NC(=O)c1cc(Cl)c2c(c1C)OC(C)([C@H]1CC[C@@H](CN3CCOCC3)CC1)O2)c1c(SC)cc(C)[nH]c1=O (single isomer, unassigned) [Compound 57, isomer 1]"
  measured-property: "pIC50"
  numeric-result: 9.34
- molecule: "CNS(=O)(=O)N1CCC(C2(C)Oc3c(Cl)cc(C(=O)NCc4c(SC)cc(C)[nH]c4=O)c(C)c3O2)CC1 (stereo not drawn)"
  measured-property: "pIC50"
  numeric-result: 9.28
- molecule: "CSc1cc(C)[nH]c(=O)c1CNC(=O)c1cc(Cl)c2c(c1C)OC(C)([C@H]1CC[C@@H](NCC3(C)COC3)CC1)O2 (single isomer, unassigned) [Compound 3, isomer 1, trifluoroacetate]"
  measured-property: "pIC50"
  numeric-result: 9.19
- molecule: "CSc1cc(C)[nH]c(=O)c1CNC(=O)c1cc(Cl)c2c(c1C)OC(C)(C1CCC(c3cnn(C)c3)CC1)O2 (single isomer, unassigned) [Compound 8, isomer 1]"
  measured-property: "pIC50"
  numeric-result: 9.29
- molecule: "CSc1cc(C)[nH]c(=O)c1CNC(=O)c1cc(Cl)c2c(c1C)OC(C)(C1CCN(C(=O)C3CC(F)(F)C3)CC1)O2 (single isomer, unassigned) [Compound 5, isomer 1]"
  measured-property: "pIC50"
  numeric-result: 9.24
- molecule: "CSc1cc(C)[nH]c(=O)c1CNC(=O)c1cc(Cl)c2c(c1C)OC(C)(C1CCN(C(=O)C3CC3)CC1)O2 (single isomer, unassigned) [Compound 7, isomer 1]"
  measured-property: "pIC50"
  numeric-result: 9.28

====

# test: Pharmacokinetic experiment in mice (intravenous 5 mg/kg or intragastric 30 mg/kg)
# Type: in vivo
# cond: male, ICR, mouse, plasma, po, 30 mg/kg, PO 30 mg/kg, read-out: AUC
# Experimental: The administration was performed according to table 5. The concentrations of the compounds in EDTA-K2 anticoagulant plasma were determined by the LC-MS/MS method. The linear range of the standard curve of the compounds is 2-2000 ng/mL. After subjected to precipitating proteins with acetonitrile, the samples were analyzed by LC-MS/MS. […]

- molecule: "[2H]C([2H])(NC(=O)c1cc(Cl)c2c(c1C)OC(C)(C1CCN(CC3CC3)CC1)O2)c1c(SC)cc(C)[nH]c1=O (stereo not shown)"
  AUC: "2650 ng·h/mL"
- molecule: "[2H]C([2H])(NC(=O)c1cc(Cl)c2c(c1C)OC(C)(C1CCC(N[C@H]3C[C@H](F)C3)CC1)O2)c1c(SC)cc(C)[nH]c1=O (single isomer, unassigned) [Compound 53, isomer 1]"
  AUC: "2020 ng·h/mL"
- molecule: "[2H]C([2H])(NC(=O)c1cc(Cl)c2c(c1C)OC(C)([C@H]1CC[C@@H](NC3CC(F)(F)C3)CC1)O2)c1c(SC)cc(C)[nH]c1=O (single isomer, unassigned) [Compound 44, isomer 1]"
  AUC: "1530 ng·h/mL"
- molecule: "Cc1cc(C)c(CNC(=O)c2cc(Cl)c3c(c2C)O[C@@](C)([C@H]2CC[C@H](N(C)C)CC2)O3)c(=O)[nH]1 [Compound I-2, Valemetostat, reference compound]"
  AUC: "645 ng·h/mL"

====

Parameter 'readout' = pIC50; parameter 'system' = EZH2 (Homo sapiens (Human), UniProt Q15910).
pIC50: −log10 of the molar value.
measured-property: pIC50

- compound: "[2H]C([2H])(NC(=O)c1cc(Cl)c2c(c1C)OC(C)([C@H]1CC[C@@H](CN3CCOCC3)CC1)O2)c1c(SC)cc(C)[nH]c1=O (single isomer, unassigned) [Compound 57, isomer 2]"
  measured-property: "pIC50"
  numeric-result: 9.31
- compound: "[2H]C([2H])(NC(=O)c1cc(Cl)c2c(c1C)OC(C)([C@H]1CC[C@@H](NC3CC(F)(F)C3)CC1)O2)c1c(SC)cc(C)[nH]c1=O (single isomer, unassigned) [Compound 44, isomer 2]"
  measured-property: "pIC50"
  numeric-result: 9.29
- compound: "CO[C@H]1C[C@H](NC2CCC(C3(C)Oc4c(Cl)cc(C(=O)NCc5c(SC)cc(C)[nH]c5=O)c(C)c4O3)CC2)C1 (single isomer, unassigned) [Compound 9, isomer 1]"
  measured-property: "pIC50"
  numeric-result: 9.09
- compound: "[2H]C([2H])(NC(=O)c1cc(Cl)c2c(c1C)OC(C)([C@H]1CC[C@@H](N3CC4COCC4C3)CC1)O2)c1c(SC)cc(C)[nH]c1=O (single isomer, unassigned) [Compound 60, isomer 2]"
  measured-property: "pIC50"
  numeric-result: 9.47
- compound: "CSc1cc(C)[nH]c(=O)c1CNC(=O)c1cc(Cl)c2c(c1C)OC(C)([C@H]1CC[C@H](N[C@H]3C[C@@H](F)C3)CC1)O2 (single isomer, unassigned) [Compound 41, isomer 2]"
  measured-property: "pIC50"
  numeric-result: 9.36
- compound: "[2H]C([2H])(NC(=O)c1cc(Cl)c2c(c1C)OC(C)([C@H]1CC[C@@H](NC3CC(F)(F)C3)CC1)O2)c1c(SC)cc(C)[nH]c1=O (single isomer, unassigned) [Compound 44, isomer 1]"
  measured-property: "pIC50"
  numeric-result: 9.32
- compound: "CSc1cc(C)[nH]c(=O)c1CNC(=O)c1cc(Cl)c2c(c1C)OC(C)(C1CCC(N(C)C3CC(F)(F)C3)CC1)O2 (stereo not shown)"
  measured-property: "pIC50"
  numeric-result: 9.23
- compound: "CSc1cc(C)[nH]c(=O)c1CNC(=O)c1cc(Cl)c2c(c1C)OC(C)([C@H]1CC[C@@H](N3CC4CN(C)CC4C3)CC1)O2 (single isomer, unassigned) [Compound 42, isomer 1]"
  measured-property: "pIC50"
  numeric-result: 9.47
- compound: "CSc1cc(C)[nH]c(=O)c1CNC(=O)c1cc(Cl)c2c(c1C)OC(C)([C@H]1CC[C@@H](C(=O)N3CC(F)(F)C3)CC1)O2 (single isomer, unassigned; isomer 2) [Compound 47, isomer 2]"
  measured-property: "pIC50"
  numeric-result: 9.04
- compound: "CSc1cc(C)[nH]c(=O)c1CNC(=O)c1cc(Cl)c2c(c1C)OC(C)(C1CCN(C3CC(F)(F)C3)CC1)O2 (single isomer, unassigned) [Compound 12, isomer 1]"
  measured-property: "pIC50"
  numeric-result: 9.13
